biological target: Nsp16
Where no end group is shown, it is not given here. The star is where a group is joined. FITC = O=C1OC2(c3ccc(O)cc3Oc3cc(O)ccc32)c2ccc(NC(=S)*)cc21

{"columns": ["Binder", "Kd / µM"],
 "data": [
  ["{FITC}-PGHSPADYLRFQDLVL [FITC-DYRK1B 394-409]", 3.2]
]}
